- system.under.test: UniProt P15538
- Sequence (P15538 25-503): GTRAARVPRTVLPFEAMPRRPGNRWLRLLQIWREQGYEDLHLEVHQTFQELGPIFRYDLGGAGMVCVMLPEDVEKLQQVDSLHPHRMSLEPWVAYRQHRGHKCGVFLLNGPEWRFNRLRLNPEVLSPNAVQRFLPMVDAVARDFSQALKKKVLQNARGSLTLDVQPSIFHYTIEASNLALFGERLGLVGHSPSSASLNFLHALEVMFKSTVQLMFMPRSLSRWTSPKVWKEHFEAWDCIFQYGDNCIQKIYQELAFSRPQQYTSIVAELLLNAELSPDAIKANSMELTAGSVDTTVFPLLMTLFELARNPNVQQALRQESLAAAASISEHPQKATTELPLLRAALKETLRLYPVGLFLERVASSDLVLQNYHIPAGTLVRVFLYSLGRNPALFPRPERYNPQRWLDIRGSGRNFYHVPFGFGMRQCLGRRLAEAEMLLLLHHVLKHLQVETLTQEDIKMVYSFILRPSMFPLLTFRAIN
- assay.details: V79-Human-CYP11B1 cell assay (cortisol formation, HTRF)
- experimental.conditions: V79 cells stably expressing human CYP11B1; substrate 250 nM 11-deoxycortisol; 3 hours
value.type: pIC50
Conceptually, pIC50 converts a concentration in mol/L into minus its log10.

Prompt: What does the data say about its pIC50? Entry: COc1c(C)cncc1-c1nc2cc(F)c(F)cc2n1C1CC1 [Example 226]
Completion: 6.10

Prompt: Any idea what pIC50 was measured for Cc1cncc(-c2nc3cc(F)c(F)cc3n2C)c1 [Example 212] ?
Completion: 6.83

Prompt: Fill in: pIC50 of Clc1ccc2nc(-c3cccnc3)n(C3CC3)c2c1 [Example 250] is ___
Completion: 6.37

Prompt: Please give the measured pIC50 for this molecule: CC(C)(O)c1cncc(-c2nc3cc(F)c(F)cc3n2C2CC2)c1 [Example 38]
Completion: 7.38

Prompt: # lookup: pIC50 of COC(C)(C)c1cncc(-c2nc3ccc(F)cc3n2C2CC2)c1 [Example 51]
Completion: 8.33

Prompt: Item COC(C)(C)c1cncc(-c2nc3cc(F)c(F)cc3n2C2CC2)c1 [Example 39] has what recorded pIC50?
Completion: 8.47

Prompt: Report pIC50 for Cc1cncc(-c2nc3ccc(F)c(F)c3n2C)c1C [Example 268] please.
Completion: 6.93

Prompt: Consider the molecule shown here: Fc1cc2nc(-c3cncc4ccccc34)n(C3CC3)c2cc1Cl [Example 131] What is its recorded pIC50?
Completion: 6.91

Prompt: Quick one: pIC50 of Fc1ccc2nc(-c3cncc4ccccc34)n(C3CC3)c2c1 [Example 16] ?
Completion: 7.23

Prompt: Give the measured pIC50 of Fc1ccc2nc(-c3cncc4ccccc34)n(C3CC3)c2c1F [Example 279] .
Completion: 6.69

Prompt: GET /values?readout=pIC50&item= Fc1cncc(-c2nc3cc(F)c(Cl)cc3n2C2CC2)c1 [Example 129]
Completion: 6.79

Prompt: Need pIC50, item COc1cncc(-c2nc3ccc(C#N)cc3n2C2CC2)c1 [Example 76]
Completion: 5.76

Prompt: # lookup: pIC50 of Cn1c(-c2cncc3ccccc23)nc2cc(F)cc(F)c21 [Example 256]
Completion: 6.31

Prompt: Consider the molecule Cn1c(-c2cccnc2)nc2ccc(C#N)cc21 [Example 99] and give its measured pIC50.
Completion: 7.01

Prompt: Value lookup for pIC50; key = N#Cc1ccc2nc(-c3cccnc3)n(C3CC3)c2c1 [Example 75]
Completion: 6.43

Prompt: Recorded pIC50 of Cc1cncc(-c2nc3ccc(F)c(F)c3n2C2CC2)c1C [Example 282] , please.
Completion: 6.53

Prompt: Name the reported pIC50 value associated with the molecule Fc1cncc(-c2nc3ccc(Br)cc3n2C2CC2)c1 [Example 172]
Completion: 6.02

Prompt: Returns the measured pIC50 for the input molecule. Input: COc1cncc(-c2nc3ccc(Cl)cc3n2C)c1 [Example 232]
Completion: 6.79

Prompt: # get_value(readout='pIC50', item= CCn1c(-c2cncc3ccccc23)nc2cc(F)ccc21 [Example 26] )
Completion: 6.52

Prompt: Name the recorded pIC50 for Cn1c(-c2cnccc2C(F)(F)F)nc2cc(F)c(Cl)cc21 [Example 335] .
Completion: 6.25

Prompt: For the molecule Fc1cncc(-c2nc3cc(F)c(F)cc3n2OCc2ccccc2)c1 [Example 373] , what pIC50 is on record?
Completion: 7.15

Prompt: Recorded pIC50 for Cc1cncc(-c2nc3cc(F)c(Cl)cc3n2C2CC2)c1 [Example 135] , please?
Completion: 6.22

Prompt: May I ask what pIC50 has been recorded for Fc1cc2nc(-c3cncc4ccccc34)n(C3CC3)c2cc1F [Example 32] ?
Completion: 8.02

Prompt: Name the recorded pIC50 for Cc1ccncc1-c1nc2ccc(F)c(F)c2n1C1CC1 [Example 284] .
Completion: 6.52

Prompt: Would you kindly share the measured pIC50 for Cn1c(-c2cccnc2)nc2cc(F)ccc21 [Example 4] ?
Completion: 5.39

Prompt: Tell me the measured pIC50 of Cn1c(-c2cccnc2)nc2ccc(Cl)cc21 [Example 233] , please.
Completion: 6.57

Prompt: Value lookup for pIC50; key = Fc1cc2nc(-c3cccnc3)n(C3CC3)c2cc1Cl [Example 132]
Completion: 5.00

Prompt: Given Fc1ccc2c(c1)nc(-c1cccnc1)n2C1CC1 [Example 17] , state its recorded pIC50.
Completion: 5.40

====

- system.under.test: UniProt P19099
- assay.details: V79-Human-CYP11B2 cell assay (aldosterone formation, HTRF)
- experimental.conditions: V79 cells stably expressing human CYP11B2; substrate 125 nM 11-deoxycorticosterone; 3 hours
Exercise: state measured IC50 for each of the molecules provided.
Quick note: give the figure in pM, leave out the unit.

Prompt: Give the reported IC50 for Fc1ccc2c(c1)nc(-c1cccnc1)n2C1CC1 [Example 17] (system: UniProt P19099).
Completion: 28000

Prompt: Item: Cn1c(-c2cnccc2C(F)(F)F)nc2cc(F)c(Cl)cc21 [Example 335] Test system: UniProt P19099 Read-out: IC50 Value: ?
Completion: 2850

Prompt: Requested read-out IC50, target or system UniProt P19099, entry Fc1ccc2nc(-c3cncc4ccccc34)n(C3CC3)c2c1 [Example 16]
Completion: 100

Prompt: # query: IC50 | item Fc1cc2nc(-c3cncc4ccccc34)n(C3CC3)c2cc1F [Example 32] | system: UniProt P19099
Completion: 100

Prompt: Value wanted: IC50 (UniProt P19099) of entry Cn1c(-c2cncc3ccccc23)nc2cc(F)cc(F)c21 [Example 256]
Completion: 346

Prompt: What is its IC50 for UniProt P19099? Entry: Cc1cncc(-c2nc3ccc(F)c(F)c3n2C)c1C [Example 268]
Completion: 234

Prompt: Checklist item: IC50 tested on UniProt P19099, entry Cc1cncc(-c2nc3cc(F)c(Cl)cc3n2C2CC2)c1 [Example 135] , value?
Completion: 226

Prompt: Query IC50 on UniProt P19099 for Cc1cncc(-c2nc3ccc(F)c(F)c3n2C2CC2)c1C [Example 282]
Completion: 417

Prompt: Hi! What's the reported IC50 for Clc1ccc2nc(-c3cccnc3)n(C3CC3)c2c1 [Example 250] on UniProt P19099?
Completion: 1590

Prompt: Please tell me: IC50 of COC(C)(C)c1cncc(-c2nc3cc(F)c(F)cc3n2C2CC2)c1 [Example 39] , system UniProt P19099?
Completion: 300

====

- system.under.test: human CYP11B2 (Homo sapiens, UniProt P19099)
- Sequence (P19099 25-503): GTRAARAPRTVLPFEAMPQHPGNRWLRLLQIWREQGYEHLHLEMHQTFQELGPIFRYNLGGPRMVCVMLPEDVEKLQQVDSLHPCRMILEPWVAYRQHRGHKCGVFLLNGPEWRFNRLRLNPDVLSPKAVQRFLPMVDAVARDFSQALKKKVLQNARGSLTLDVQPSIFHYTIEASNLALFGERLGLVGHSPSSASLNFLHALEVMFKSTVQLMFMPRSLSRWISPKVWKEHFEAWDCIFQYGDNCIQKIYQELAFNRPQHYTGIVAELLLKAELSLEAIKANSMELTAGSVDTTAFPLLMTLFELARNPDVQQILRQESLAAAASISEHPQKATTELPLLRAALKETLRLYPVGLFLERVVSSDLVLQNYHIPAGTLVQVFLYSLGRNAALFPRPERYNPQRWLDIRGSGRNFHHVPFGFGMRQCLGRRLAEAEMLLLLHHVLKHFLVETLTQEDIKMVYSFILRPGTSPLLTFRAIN
- assay.details: V79-Human-CYP11B2 cell assay (aldosterone formation, HTRF)
- experimental.conditions: V79 cells stably expressing human CYP11B2; substrate 125 nM 11-deoxycorticosterone; 3 hours
value.type: log10 IC50 (log10 of the value in nM)
// stored as log10 of IC50 expressed in nM

Prompt: Look up log10 IC50: COc1cncc(-c2nc3ccc(Cl)cc3n2C)c1
Completion: -0.70

Prompt: Param item = Fc1ccc2nc(-c3cncc4ccccc34)n(C3CC3)c2c1F ; retrieve measured log10 IC50.
Completion: -0.55

Prompt: Looking for the measured log10 IC50 of Cc1cncc(-c2nc3cc(F)c(F)cc3n2C)c1 , can you help?
Completion: -0.23

Prompt: Name the recorded log10 IC50 for COc1cncc(-c2nc3ccc(C#N)cc3n2C2CC2)c1 .
Completion: -0.37

Prompt: Value lookup for log10 IC50; key = COC(C)(C)c1cncc(-c2nc3ccc(F)cc3n2C2CC2)c1
Completion: -0.70

Prompt: Which log10 IC50 value belongs to N#Cc1ccc2nc(-c3cccnc3)n(C3CC3)c2c1 ?
Completion: 0.09

Prompt: Look at this molecule and give its reported log10 IC50. Cn1c(-c2cccnc2)nc2ccc(Cl)cc21
Completion: 0.06

Prompt: Fill in the blank: the reported log10 IC50 of Fc1cncc(-c2nc3cc(F)c(Cl)cc3n2C2CC2)c1 is ____.
Completion: -0.09

Prompt: # get_value(readout='log10 IC50', item= Cc1ccncc1-c1nc2ccc(F)c(F)c2n1C1CC1 )
Completion: 0.13

Prompt: Tell me the measured log10 IC50 of Fc1cncc(-c2nc3cc(F)c(F)cc3n2OCc2ccccc2)c1 , please.
Completion: -0.30

Prompt: Recorded log10 IC50 for CCn1c(-c2cncc3ccccc23)nc2cc(F)ccc21 , please?
Completion: 0.58

Prompt: I'd like to know its log10 IC50. The molecule in question is COc1c(C)cncc1-c1nc2cc(F)c(F)cc2n1C1CC1
Completion: 0.05

Prompt: Need log10 IC50 of Fc1cc2nc(-c3cncc4ccccc34)n(C3CC3)c2cc1Cl , thanks.
Completion: -0.90

Prompt: Any idea what its log10 IC50 is? The molecule is Cn1c(-c2cccnc2)nc2cc(F)ccc21
Completion: 1.41

Prompt: I am curious: what log10 IC50 value has been reported for Cn1c(-c2cccnc2)nc2ccc(C#N)cc21 ?
Completion: -0.50

Prompt: Requested read-out: log10 IC50. Entry: CC(C)(O)c1cncc(-c2nc3cc(F)c(F)cc3n2C2CC2)c1
Completion: -0.52

Prompt: What value of log10 IC50 has been reported for the following molecule? Fc1cc2nc(-c3cccnc3)n(C3CC3)c2cc1Cl
Completion: -0.22

Prompt: Given Fc1cncc(-c2nc3ccc(Br)cc3n2C2CC2)c1 , state its recorded log10 IC50.
Completion: 0.55

These data points were gathered from patent US9382226B2.
